Data origin: the supplement of paper PMC10126150

Listed here: items and their measured switch fluorescence ratio.
# System: ATP;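 also: ATP exposure 15 min at 22 °C before imaging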
# assay_text: switch fluorescence ratio, 500 uM ATP over buffer (Cy3 cluster intensity, sum of 5 cycles each) (fold (ratio)); higher = stronger signal-on switching upon ATP binding; sequences stand for … in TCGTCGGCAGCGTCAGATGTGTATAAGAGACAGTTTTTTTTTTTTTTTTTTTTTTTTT…TC
# condition_parameters: aptamer strand: ATP DNA aptamer (quencher-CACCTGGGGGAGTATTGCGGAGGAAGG + anchor), 100 nM annealed; ATP concentration: 500 uM
result_type: switch fluorescence ratio

- monomer_sequence: "CAGGCGTGCA"
  result_type: "switch fluorescence ratio"
  endpoint_result: 0.998
- monomer_sequence: "GATGTTTTGG"
  result_type: "switch fluorescence ratio"
  endpoint_result: 0.986
- monomer_sequence: "CGGTTAGTTC"
  result_type: "switch fluorescence ratio"
  endpoint_result: 0.946
- monomer_sequence: "TGGGGTAAGT"
  result_type: "switch fluorescence ratio"
  endpoint_result: 0.993
- monomer_sequence: "TTACGAAAGA"
  result_type: "switch fluorescence ratio"
  endpoint_result: 1.07
- monomer_sequence: "ACATTTTACT"
  result_type: "switch fluorescence ratio"
  endpoint_result: 1.12
- monomer_sequence: "TAGGGGTGTA"
  result_type: "switch fluorescence ratio"
  endpoint_result: 1
- monomer_sequence: "CTTAGCGGCC"
  result_type: "switch fluorescence ratio"
  endpoint_result: 1.01
- monomer_sequence: "CACTTGGAAG"
  result_type: "switch fluorescence ratio"
  endpoint_result: 1
- monomer_sequence: "TAGGTCAGAA"
  result_type: "switch fluorescence ratio"
  endpoint_result: 0.989
- monomer_sequence: "GCGAAATTAA"
  result_type: "switch fluorescence ratio"
  endpoint_result: 0.997
- monomer_sequence: "CGGACTGATT"
  result_type: "switch fluorescence ratio"
  endpoint_result: 1
- monomer_sequence: "GATTAACCTA"
  result_type: "switch fluorescence ratio"
  endpoint_result: 1.01
- monomer_sequence: "CAATTCTGTA"
  result_type: "switch fluorescence ratio"
  endpoint_result: 0.997
- monomer_sequence: "CTGCCCTCGC"
  result_type: "switch fluorescence ratio"
  endpoint_result: 1.09
- monomer_sequence: "AAGTTAAAAT"
  result_type: "switch fluorescence ratio"
  endpoint_result: 1.01
- monomer_sequence: "TTCAAATGGA"
  result_type: "switch fluorescence ratio"
  endpoint_result: 0.991
- monomer_sequence: "TTGGAGTTGG"
  result_type: "switch fluorescence ratio"
  endpoint_result: 0.976
- monomer_sequence: "ACTGGATTTG"
  result_type: "switch fluorescence ratio"
  endpoint_result: 0.989
- monomer_sequence: "CGGAGATACG"
  result_type: "switch fluorescence ratio"
  endpoint_result: 1.02

###

# Tested on: ATP;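 also: ATP exposure 15 min at 22 °C before imaging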
# assay_text: switch fluorescence ratio, 500 uM ATP over buffer (Cy3 cluster intensity, sum of 5 cycles each) (fold (ratio)); higher = stronger signal-on switching upon ATP binding; sequences stand for … in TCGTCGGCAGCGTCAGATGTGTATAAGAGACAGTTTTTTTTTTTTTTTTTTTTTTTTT…TC
# condition_parameters: aptamer strand: ATP DNA aptamer (quencher-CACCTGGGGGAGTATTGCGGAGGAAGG + anchor), 100 nM annealed; ATP concentration: 500 uM
Class Satisfied: switch fluorescence ratio at least 1. Class Not satisfied: switch fluorescence ratio below 1.

- monomer_sequence: "AGTAATGGG"
  class: "Not satisfied"
- monomer_sequence: "GCTTCTGAGG"
  class: "Satisfied"
- monomer_sequence: "AAGAACTAGG"
  class: "Satisfied"
- monomer_sequence: "TGGGACGGTC"
  class: "Satisfied"
- monomer_sequence: "GAGTGAGCTT"
  class: "Not satisfied"
- monomer_sequence: "TCGGGCGGGG"
  class: "Satisfied"
- monomer_sequence: "TTATAGCCTT"
  class: "Satisfied"
- monomer_sequence: "TTTAAGGTCG"
  class: "Satisfied"
- monomer_sequence: "ACTGGGATCA"
  class: "Satisfied"
- monomer_sequence: "CCAAGGCTTA"
  class: "Satisfied"
- monomer_sequence: "TTGGGGGATA"
  class: "Satisfied"
- monomer_sequence: "ACGATTAGAC"
  class: "Satisfied"
- monomer_sequence: "TTGGATTGAC"
  class: "Satisfied"
- monomer_sequence: "AAGGGGCGCA"
  class: "Not satisfied"

###

Entries annotated with measured switch fluorescence ratio
# System: ATP;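 also: ATP exposure 15 min at 22 °C before imaging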
# assay_text: switch fluorescence ratio, 500 uM ATP over buffer (Cy3 cluster intensity, sum of 5 cycles each) (fold (ratio)); higher = stronger signal-on switching upon ATP binding; sequences stand for … in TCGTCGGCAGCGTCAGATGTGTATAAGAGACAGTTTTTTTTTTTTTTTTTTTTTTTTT…TC
# condition_parameters: aptamer strand: ATP DNA aptamer (quencher-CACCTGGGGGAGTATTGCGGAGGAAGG + anchor), 100 nM annealed; ATP concentration: 500 uM

- monomer_sequence: "ATTAGGTTTC"
  switch fluorescence ratio: 1.01
- monomer_sequence: "TGGTGATGGG"
  switch fluorescence ratio: 0.992
- monomer_sequence: "GGTACAGTTT"
  switch fluorescence ratio: 0.975
- monomer_sequence: "GTTTAAAATC"
  switch fluorescence ratio: 0.998
- monomer_sequence: "CCAGATTTTA"
  switch fluorescence ratio: 0.992
- monomer_sequence: "TTGGCAAATG"
  switch fluorescence ratio: 0.988
- monomer_sequence: "TGAATCAATT"
  switch fluorescence ratio: 1.06
- monomer_sequence: "TGATTCGGCG"
  switch fluorescence ratio: 1.03
- monomer_sequence: "ACTCTTTCGG"
  switch fluorescence ratio: 1
- monomer_sequence: "TCATGGTACG"
  switch fluorescence ratio: 1.06
- monomer_sequence: "TTGAGCGAGG"
  switch fluorescence ratio: 0.961
- monomer_sequence: "ATTGGACATC"
  switch fluorescence ratio: 1.11
- monomer_sequence: "TTAGCCACGC"
  switch fluorescence ratio: 0.99
- monomer_sequence: "TATCGTGGAG"
  switch fluorescence ratio: 1.04
- monomer_sequence: "TAGGGGAACC"
  switch fluorescence ratio: 0.969
- monomer_sequence: "TTTTTCCAAA"
  switch fluorescence ratio: 1
- monomer_sequence: "ACCTGGGTGG"
  switch fluorescence ratio: 1.03
- monomer_sequence: "CGATATGTCG"
  switch fluorescence ratio: 1.41
- monomer_sequence: "AAAGTGTGCT"
  switch fluorescence ratio: 1.01
- monomer_sequence: "ACTGCTGGGA"
  switch fluorescence ratio: 1.01

###

# Tested on: ATP;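 also: ATP exposure 15 min at 22 °C before imaging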
# assay_text: switch fluorescence ratio, 500 uM ATP over buffer (Cy3 cluster intensity, sum of 5 cycles each) (fold (ratio)); higher = stronger signal-on switching upon ATP binding; sequences stand for … in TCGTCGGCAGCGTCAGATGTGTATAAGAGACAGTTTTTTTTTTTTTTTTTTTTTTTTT…TC
# condition_parameters: aptamer strand: ATP DNA aptamer (quencher-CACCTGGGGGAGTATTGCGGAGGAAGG + anchor), 100 nM annealed; ATP concentration: 500 uM
switch fluorescence ratio of 1 or higher: 1 (yes). Under 1: 0 (no).

- monomer_sequence: "CAAATGGCTG"
  class: "1 (yes)"
- monomer_sequence: "TTGCGTTTCT"
  class: "1 (yes)"
- monomer_sequence: "CTAGGTAAAC"
  class: "1 (yes)"
- monomer_sequence: "AACCTTCGTG"
  class: "1 (yes)"
- monomer_sequence: "CGAATACATA"
  class: "1 (yes)"
- monomer_sequence: "TATCTAGGTC"
  class: "0 (no)"
- monomer_sequence: "TTTTTCACTA"
  class: "1 (yes)"
- monomer_sequence: "TTTTCCCCGT"
  class: "1 (yes)"
- monomer_sequence: "CGTGGGTAGA"
  class: "1 (yes)"
- monomer_sequence: "CCGGAGTTGG"
  class: "1 (yes)"
- monomer_sequence: "TGTCGGCTGC"
  class: "1 (yes)"
- monomer_sequence: "TCTGAGGGTT"
  class: "1 (yes)"
- monomer_sequence: "TGGTATAACG"
  class: "0 (no)"
- monomer_sequence: "GAGAGAGTGA"
  class: "0 (no)"
- monomer_sequence: "GATTACTCTG"
  class: "1 (yes)"
- monomer_sequence: "ATGTGCCTGC"
  class: "1 (yes)"
- monomer_sequence: "AGTTACTTAG"
  class: "1 (yes)"
- monomer_sequence: "GGTTCAGCGC"
  class: "1 (yes)"
- monomer_sequence: "GACCCGGGTG"
  class: "1 (yes)"
- monomer_sequence: "TGCTACTGC"
  class: "1 (yes)"

###

# Tested on: ATP;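 also: ATP exposure 15 min at 22 °C before imaging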
# assay_text: switch fluorescence ratio, 500 uM ATP over buffer (Cy3 cluster intensity, sum of 5 cycles each) (fold (ratio)); higher = stronger signal-on switching upon ATP binding; sequences stand for … in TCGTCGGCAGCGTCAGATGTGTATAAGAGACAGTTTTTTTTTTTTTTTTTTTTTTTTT…TC
# condition_parameters: aptamer strand: ATP DNA aptamer (quencher-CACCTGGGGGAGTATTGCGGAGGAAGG + anchor), 100 nM annealed; ATP concentration: 500 uM

- monomer_sequence: "CAGGGGTGCG"
  switch fluorescence ratio: 0.991
- monomer_sequence: "ATGTTAGGTT"
  switch fluorescence ratio: 1
- monomer_sequence: "ATTCGGTCGA"
  switch fluorescence ratio: 0.976
- monomer_sequence: "TAGGGGAAAT"
  switch fluorescence ratio: 0.994
- monomer_sequence: "ATGAGAGAAT"
  switch fluorescence ratio: 1.01
- monomer_sequence: "GGATAGTGGT"
  switch fluorescence ratio: 1.01
- monomer_sequence: "CAGGTGGGGT"
  switch fluorescence ratio: 1.16
- monomer_sequence: "AGGGGTTCTG"
  switch fluorescence ratio: 1.01
- monomer_sequence: "TAGGTATGTG"
  switch fluorescence ratio: 1.03
- monomer_sequence: "AAGTGTATCA"
  switch fluorescence ratio: 0.983
